molecules and their reported melting point
Structures can show the parent of a compound that is named as a salt.

CNC(C)c1cc(F)ccc1Oc1ccc(Cl)c(Cl)c1 (stereo not drawn); 127 °C
CNC(C)c1ccccc1Oc1ccc(Cl)cc1 (stereo not drawn) (as salt: HCl); 147 to 149 °C
Cl.Fc1ccc(Oc2ccc(Cl)c(Cl)c2)c(C2CCCN2)c1 (stereo not drawn); 171 to 173 °C

Record summary for CNCc1cc(OC)ccc1Oc1ccc(Cl)c(Cl)c1 (as salt: HCl) (hydrate or solvate) : reported melting point = 140 to 141 °C

Record summary for CNCc1ccc(Br)cc1Oc1ccc(Cl)c(Cl)c1 (as salt: HCl) : reported melting point = 185 to 189 °C

Record summary for CC(=O)Nc1ccc(Oc2ccc(Cl)c(Cl)c2)c(CN(C)C)c1.Cl : reported melting point = 199 to 202 °C

###

Structures can show the parent of a compound that is named as a salt.
compounds and their reported melting point

Answered examples (3):
CNCc1cc(Br)ccc1Oc1ccc(Cl)c(Cl)c1 (as salt: HCl); 206 to 210 °C
CC(c1ccccc1Oc1ccc(Cl)c(Cl)c1)N(C)C (centres unmarked) (as salt: HCl); 130 to 133 °C
CN(C)Cc1cc(F)ccc1Oc1ccc(Cl)c(Cl)c1 (as salt: HCl) [Example 13]; 174 to 175 °C

Record summary for NCc1cc(F)ccc1Oc1ccc(Cl)c(Cl)c1 (as salt: hydrochloride) [Example 57] : reported melting point = 190 to 194 °C

Record summary for CNCc1cc(F)ccc1Oc1ccc(Cl)cc1 (as salt: HCl) : reported melting point = 208 to 209 °C

###

compounds and their reported melting point
Counter-ions that a name gives are not always drawn.

CNCc1cc(OC)c(OC)cc1Oc1ccc(Cl)c(Cl)c1 (as salt: HCl); 143 to 145 °C
CNCc1ccc(Cl)cc1Oc1ccc(Cl)c(Cl)c1; 132 to 133 °C
CN(C)Cc1cc(C(F)(F)F)ccc1Oc1ccc(Cl)c(Cl)c1.O=C(O)/C=C\C(=O)O; 127 to 128 °C
Cc1ccc(Oc2ccc(Cl)c(Cl)c2)c(CN(C)C)c1 (as salt: HCl); 196 to 198 °C

Record summary for CNCc1ccc(C(F)(F)F)cc1Oc1ccc(Cl)c(Cl)c1 : reported melting point = 164 to 166 °C

FYI, the data here is from patent US7084165B2.
